FYI, the data here is from PubChem BioAssay (NCI).

Tested on: BT-549 breast
protocol notes: NCI-60 one-dose screen, 48 h
condition description: 10 µM unless noted
Compounds without any hit were thinned out: in the full panel of roughly 83,000, 20% have a hit. Active and inactive are the calls of the source. How the source made its calls: active means growth percent below 10; inactive means the rest.
Respond only with the outcome that fits, drawn from active, inactive

Nc1cccc(-c2nc3sccn3c2-c2ccnc(NCCCNS(=O)(=O)c3cccc4ccccc34)n2)c1 :: active
S=C1CC(=S)NC(=S)N1 :: inactive
O=C(NS(=O)(=O)c1ccccc1)n1cc(-c2ccncc2)c(-c2ccc(Cl)c(O)c2)n1 :: inactive

Tell me the assay call for Cc1cc(N/N=C/c2nc(-c3ccccc3)oc2C)c2cc(Br)ccc2n1 please.
inactive

Tell me the assay call for NC1N=C(SCC(=O)N2CCN(c3cc4c(cc3F)c(=O)c(C(=O)O)cn4C3CC3)CC2)NC(=O)/C1=C/c1ccc(Cl)cc1 (configuration not stated) please.
inactive

Tell me the assay call for O=C(O)C1CCCN1 (configuration not stated) please.
inactive

Tell me the assay call for Cc1nc2ncccc2nc1Nc1ccc(S(=O)(=O)Nc2cncs2)cc1 please.
inactive

Tell me the assay call for ClC(Cl)c1nc(-c2ccccc2)nc2cc(-c3ccccc3)nn12 please.
inactive

Tell me the assay call for CCCC(=O)Oc1ccc(/C(=C(\C)c2ccccc2)c2ccc(OCCN(CC)CC)cc2)cc1 please.
inactive

Tell me the assay call for Brc1ccc(-c2[nH]ncc2-c2c[nH]c3ccccc23)cc1 please.
inactive

Tell me the assay call for COC(=O)[C@]12CC[C@@H](C)[C@H](C)[C@@H]1C1=CC[C@@H]3[C@@]4(C)C(C=O)=C[C@@](C)(COC(=O)c5ccco5)[C@@H]4[C@H](O)C[C@@]3(C)[C@]1(C)CC2 please.
active

Tell me the assay call for COc1cc2c(cc1O)CCN1C[C@@H](CC(C)C)[C@@H](O)C[C@@H]21 please.
inactive

Tell me the assay call for CCN(CC)c1ccc2[nH]c3c(C(N)=O)cc(=O)c(=O)c=3oc2c1 please.
inactive

Tell me the assay call for COc1ccc(N=Cc2c(O)ccc3c2oc2cc(Cl)c(O)c(Cl)c23)cc1 please.
inactive

Tell me the assay call for O=C(O)/C=C/C(=O)c1ccc(Cl)cc1 please.
inactive

* * *

System: NCI-H322M lung
protocol notes: NCI-60 one-dose screen, 48 h (100 = growth as untreated, 0 = no growth, -100 = all killed)
condition description: 10 µM unless noted
About 83,000 compounds went through this panel and 20% of them were active in at least one assay; those are over-represented in the sample as a whole.
metric: growth (%)
Give the number; % is assumed, so skip it.

N#Cc1c(-c2ccccc2)cc(-c2ccccc2)n(CC(=O)NO)c1=O :: 81.2
O=[N+]([O-])c1ccc(C(c2ccccc2)c2ccccc2)cc1 :: 78

Find the recorded growth belonging to CCOC(=O)c1ccc2c(c1)c1c(C)c3cccnc3c(C)c1n2C and report it.
56.9

Find the recorded growth belonging to Cc1ccc(S(=O)(=O)NCCNc2nccc(-c3c(-c4ccc(O)cc4)nc4sccn34)n2)cc1 and report it.
110

Find the recorded growth belonging to O=C1/C(=C/c2ccc([N+](=O)[O-])cc2)CN(C(=O)CCN2CCC(=NO)CC2)C/C1=C\c1ccc([N+](=O)[O-])cc1 and report it.
-18.7

Find the recorded growth belonging to Nc1cc2c(cc1C(=O)c1cccc(F)c1)OCCO2 and report it.
98.5

Find the recorded growth belonging to CCOC(=O)C1C(=O)C=C(c2ccc(OC)cc2)CC1c1sc(N(C)Cc2ccccc2)nc1Cl (stereo not given) and report it.
76.1

Find the recorded growth belonging to CCN1C(=O)N(CC)C2C1NN=c1s/c(=C\c3cccnc3)c(=O)n12 (stereo not given) and report it.
47.3
